# TEST: qHTS assay to identify small molecule agonists of the farnesoid-X-receptor (FXR) signaling pathway - cell viability counter screen (AID 743218); note: % is set by controls: 0 for no effect and ±100 for the full control effect; nearly all actives have a fitted effect of over 45% in size
# STUDY CONDITIONS: FXR-bla HEK293T viability, CellTiter-Glo luminescence, 16 h; series mostly up to 62.6 µM
# From the text: U.S. Tox21 Program National Center for Advancing Translational Sciences [NCATS] NIH Chemical Genomics Center [NCGC] U.S. Environmental Protection Agency [EPA] National Institutes of Environmental Health Sciences [NIEHS] National Toxicology Program [NTP] U.S. Food and Drug Administration [FDA] Tox21 Assay Overview: The farnesoid-X-receptor (FXR), a nuclear hormone receptor, is highly expressed in liver, intestine, kidney and adrenal cortex. […]
Results filed as inconclusive are left out. The source made the active and inactive calls. Calls come from the whole dose curve; as a rule, active = well fitted cell-killing curve with a large enough effect in the repeat runs; inconclusive = weak or mixed curves, or effect the other way; inactive = no such curve, though single readings can be large or run the other way. Non-standard residues stand in square brackets, D forms with d. Residues, ends and D or L forms follow the SMILES beside them. *: point of attachment. Sta = CC(C)C[C@H](N)[C@@H](O)CC(=O)O; Isovaleryl = CC(C)CC(=O)*
REPORTED ENDPOINT: viability change, negative = cytotoxic

// solved cases for viability change, negative = cytotoxic follow
COMPOUND	REPORTED ENDPOINT	OBSERVED VALUE
CCCCS	viability change, negative = cytotoxic	inactive
CC1(C)S[C@@H]2[C@H](NC(=O)Cc3ccccc3)C(=O)N2[C@H]1C(=O)O (tested in a mixture with another compound)	viability change, negative = cytotoxic	inactive
CCCCN1C(=O)c2ccccc2C1=O	viability change, negative = cytotoxic	inactive
CC(C)c1cc(C(C)C)cc(C(C)C)c1	viability change, negative = cytotoxic	inactive
CC(C)CC(=O)N[C@H](C(=O)N[C@H](C(=O)N[C@@H](CC(C)C)[C@@H](O)CC(=O)N[C@@H](C)C(=O)N[C@@H](CC(C)C)[C@@H](O)CC(=O)O)C(C)C)C(C)C (Isovaleryl-VV[Sta]A[Sta]-OH)	viability change, negative = cytotoxic	inactive

Request: Recorded viability change, negative = cytotoxic of Cc1ccccc1C#N , please.
Response: inactive

Request: Recorded viability change, negative = cytotoxic of CCCc1ncc(C(=O)O)s1 , please.
Response: inactive

Request: Recorded viability change, negative = cytotoxic of Cc1cc(C)c(N)c(Cl)c1 , please.
Response: inactive

Request: Recorded viability change, negative = cytotoxic of CC(=O)c1ccc2ccc3ccccc3c2c1 , please.
Response: inactive

---

# ASSAY SYSTEM: Thyrotropin receptor (Homo sapiens)
# TEST: qHTS assay to identify small molecule antagonists of the thyroid stimulating hormone receptor (TSHR) signaling pathway (AID 1259385); note: % is set by controls: 0 for no effect and ±100 for the full control effect; nearly all actives have a fitted effect of over 20% in size
# STUDY CONDITIONS: TSHR-HEK293 cAMP HTRF, TSH-stimulated antagonist mode; series mostly up to 92.4 µM
Results filed as inconclusive are left out. The source made the active and inactive calls. Calls come from the whole dose curve.
REPORTED ENDPOINT: activity change, negative = inhibition

// solved cases for activity change, negative = inhibition follow
MOLECULE	OBSERVED VALUE
CC(=O)c1ccc(O)c(C(N)=O)c1	inactive
NC[C@H]1O[C@H](O[C@H]2[C@H](O)[C@@H](O[C@H]3O[C@H](CO)[C@@H](O)[C@H](N)[C@H]3O)[C@H](N)C[C@@H]2N)[C@H](N)[C@@H](O)[C@@H]1O	4.59% [at 19 µM] (inactive)
C[C@@H]1CC[C@@]2(OC1)O[C@H]1C[C@H]3[C@@H]4CC[C@H]5C[C@@H](O)CC[C@]5(C)[C@H]4CC(=O)[C@]3(C)[C@H]1[C@@H]2C	-0.41% [at 8.39 µM] (inactive)
CCCCN=C(N)N=C(N)N	inactive
N=C(N)N1CCc2ccccc2C1	0.0098% [at 8.39 µM] (inactive)
CC(C)(C)OC=O	inactive
O=C(O)Cc1ccccc1Oc1ccc(Cl)cc1Cl	inactive
O=C(OOC(=O)c1ccccc1)c1ccccc1	inactive

Request: Recorded activity change, negative = inhibition of CCC(C)SSC(C)CC (configuration not stated) , please.
Response: inactive

Request: Recorded activity change, negative = inhibition of CCN(CC)CC , please.
Response: inactive

Request: Recorded activity change, negative = inhibition of C/C=C/C(=O)CCCC , please.
Response: inactive

Request: Recorded activity change, negative = inhibition of Cc1cccc(N)n1 , please.
Response: inactive
